# credit: the supplement of paper PMC10127200

System: FB
Assay: Euclidean distance of Cell Painting phenotypic profile (signed KS, 77 features) to DMSO centroid (dimensionless distance); 5 or 10 uM (library dependent); higher = stronger phenotypic change vs DMSO (phenoactivity)
Conditions: 48 h
Structures can show the parent of a compound that is named as a salt.
Readout Label: Euclidean distance
Keep the answer to the number alone.

// query Suppose we examine the molecule C[C@]12CC[C@@H]3c4ccc(O)cc4CC[C@H]3[C@@H]1CC[C@@H]2O [Estradiol] ; what Euclidean distance value has been reported?
// result 1.1

// query Ok, now "O=C(Cc1ccc(-c2ccc(OCCN3CCOCC3)cc2)cn1)NCc1ccccc1"
// result 2.74

// query Can you check O=C1NC(=O)C(=Cc2ccc(-c3ccc(F)cc3)o2)S1 (stereo in doubt) next?
// result 1.29

// query Please answer likewise for CC(C)(C)NC(=O)[C@@H]1CN(Cc2cccnc2)CCN1C[C@@H](O)C[C@@H](Cc1ccccc1)C(=O)N[C@H]1c2ccccc2C[C@H]1O [Indinavir Sulfate]
// result 0.953

// query # repeat for C[C@H](CCC(=O)O)[C@H]1CC[C@H]2[C@@H]3[C@H](O)C[C@@H]4C[C@H](O)CC[C@]4(C)[C@H]3CC[C@]12C [Chenodeoxycholic Acid]
// result 0.881

// query What do you get for OCc1c[nH]c2ccccc12 [Indole-3-carbinol] ?
// result 0.767

// query Would you mind doing CC(C)C(=O)Nc1ccc([N+](=O)[O-])c(C(F)(F)F)c1 [Flutamide] as well?
// result 1.09

// query Proceed to "CCCC(=O)Nc1cccc(NC(=O)c2ccccc2Br)c1"
// result 1.14

---

Test system: 786-O
Assay: Euclidean distance of Cell Painting phenotypic profile (signed KS, 77 features) to DMSO centroid (dimensionless distance); 5 or 10 uM (library dependent); higher = stronger phenotypic change vs DMSO (phenoactivity)
Settings: 48 h
Structures can show the parent of a compound that is named as a salt.
Threshold rule: Euclidean distance greater than or equal to 2 is MET; below that, NOT MET.

// query Determine whether this compound has Euclidean distance no lower than 2: CN1CCC(CNc2ccc3ncc(-c4cccc(OC(F)(F)F)c4)n3n2)CC1 [SGI-1776 free base]
// result MET

// query Moving on to "Cc1c(C)c2c(c(C)c1O)CC[C@@](C)(CCC[C@H](C)CCC[C@H](C)CCCC(C)C)O2"
// result NOT MET

// query // next record "O=C(NCc1c(F)cc(F)cc1F)c1cn2c(c(O)c1=O)C(=O)N1[C@H]3CC[C@H](C3)O[C@@H]1C2"
// result NOT MET

// query Another: NC(=O)N1c2ccccc2CC(=O)c2ccccc21 [Oxcarbazepine]
// result MET

// query c1ccc(-c2ccc(C(c3ccccc3)n3ccnc3)cc2)cc1 (stereo unspecified) , same question.
// result NOT MET

// query Also C[C@H]1CNCCCN1S(=O)(=O)c1cccc2cncc(F)c12 [Ripasudil (K-115) hydrochloride dihydrate] ?
// result MET

// query Now try "CC[C@H](Nc1ncnc2[nH]cnc12)c1nc2cccc(F)c2c(=O)n1-c1ccccc1" .
// result NOT MET

// query What would you report for COC(=O)C1=C(C)NC(C)=C(C(=O)OCC(C)C)C1c1ccccc1[N+](=O)[O-] (stereo unspecified) ?
// result MET

// query Cool, now "N=C(N)NS(=O)(=O)c1ccc(N)cc1"
// result NOT MET

// query "OCCn1cc(-c2cnc3nnn(Cc4ccc5ncccc5c4)c3n2)cn1" , same question.
// result NOT MET

// query Would you mind doing "CCOC(=O)C1=C[C@]2(CC)CCCN3CCc4c(n1c1ccccc41)[C@@H]32" as well?
// result NOT MET

// query Repeat with "CC(C)(O)c1cc(Nc2cc(Oc3cn(C4CC4)nc3C3CCOCC3)ccn2)ccn1"
// result NOT MET

// query Follow-up entry: "OCCN(CCO)c1nc(N2CCCCC2)c2nc(N(CCO)CCO)nc(N3CCCCC3)c2n1"
// result NOT MET

// query Also need "COc1nc2ccc(Br)cc2cc1[C@@H](c1ccccc1)[C@@](O)(CCN(C)C)c1cccc2ccccc12" , thanks.
// result NOT MET

// query Request: "CC[C@H]1OC(=O)[C@H](C)[C@@H](O[C@H]2C[C@@](C)(OC)[C@@H](O)[C@H](C)O2)[C@H](C)[C@@H](O[C@@H]2O[C@H](C)C[C@H](N(C)C)[C@H]2O)[C@](C)(O)C[C@@H](C)/C(=N\OCOCCOC)[C@H](C)[C@@H](O)[C@]1(C)O"
// result NOT MET

// query Lookup "Cc1c(CN2CCN(C(=O)[C@H](C)O)CC2)sc2c(N3CCOCC3)nc(-c3cnc(N)nc3)nc12"
// result MET
